- target: HLA-A*0201 molecule (Homo sapiens, UniProt P04439, D140Y/D185E/D98H/E176V/E277Q/G131W/G231S/I119V/I121R/I166T/I218V/L300P/L318F/N151K/N90K/P208A/P217A/Q86G/Q94H/R138H/R169H/T345S)
- Construct: T2A2 cells (TAP-deficient HLA-A2 molecules overexpressing, cultured in IMDM medium); host or cells: T2A2 cells
- measurement-description: T2A2 cell-binding assay
- measurement-conditions: T2A2 cells; FI = (MFI of peptide - MFI of control without peptide)/MFI of control without peptide; anti-HLA-A2 BB7.2, flow cytometry; FI > 1 = high binding affinity
reported-property: FI (fluorescence index)

>>> endpoint_result("QLQAQLQGV [KMT2D-R4198Q]")
1.12
>>> endpoint_result("TMPVVSSEV [MUC17-A2414V]")
1.54
>>> endpoint_result("SMGDALDSI [MUC16-A4579D]")
1.35
>>> endpoint_result("LLARNSFEV [TP53-G266A]")
0.16
>>> endpoint_result("FLTATRQEI [DNAH5-M4495T]")
0.21
>>> endpoint_result("ILQDGFLYV [ABCA13-E1359Q]")
1.56
>>> endpoint_result("GMLSPVDFL [NOTCH1-S2202F]")
0.13
>>> endpoint_result("KLLSLLEVL [SYNE1-A65S]")
0.08
>>> endpoint_result("QVTDFLAPL [PCLO-E4090Q]")
1.85
>>> endpoint_result("CLRDYQPFL [LRP2-D1744Y]")
0.20
>>> endpoint_result("ILIGETIKI [COX-2 321–329, reference compound]")
2.12
>>> endpoint_result("ALNKMFFQL [TP53-C135F]")
0.12
>>> endpoint_result("FMNELMDII [DNAH5-D4110N]")
0.38
>>> endpoint_result("YMCNSSCMV [TP53-G244V]")
0.49
>>> endpoint_result("YLPDHHEEL [SYNE1-S7628Y]")
1.67
>>> endpoint_result("VLDDSETTI [MUC16-A9832D]")
3.56
>>> endpoint_result("ILGEEAPRL [KMT2D-F4722L]")
0.29
>>> endpoint_result("SIPSFPLPV [MUC16-S5361F]")
2.25
>>> endpoint_result("LMSRIPHDV [MUC16-Q5024H]")
0.14
>>> endpoint_result("NLHSINDFL [ABCA13-D1303H]")
0.24
>>> endpoint_result("ILWRQDINL [NFE2L2-D13N]")
1.67
>>> endpoint_result("LLGPNSFEV [TP53-R267P]")
1.81
>>> endpoint_result("GLPNDDLYI [DNAH5-S3587Y]")
0.68
>>> endpoint_result("YLLTPNGRV [LRP1B-C2479Y]")
0.39
>>> endpoint_result("ALPQHLIRV [TP53-P190L]")
1.26
>>> endpoint_result("TLTATVNIV [PCDH15-S628L]")
0.43
>>> endpoint_result("FLIQTEQKL [SYNE1-V7402I]")
1.27
>>> endpoint_result("TMSERSTLL [MUC17-T3809M]")
0.12
>>> endpoint_result("GLFQCGTGL [LRP1B-R3362L]")
0.09
>>> endpoint_result("ILWRQDTDL [NFE2L2-I28T]")
0.79
>>> endpoint_result("VISDYKYKV [NEB-D3282V]")
0.09

* * *

- target: peptide/HLA-A*0201 complex (Homo sapiens, UniProt P04439, D140Y/D185E/D98H/E176V/E277Q/G131W/G231S/I119V/I121R/I166T/I218V/L300P/L318F/N151K/N90K/P208A/P217A/Q86G/Q94H/R138H/R169H/T345S)
- Construct: T2A2 cells (TAP-deficient HLA-A2 molecules overexpressing, cultured in IMDM medium); β2-M from Merck; host or cells: T2A2 cells
- measurement-description: peptide/MHC complex stabilization assay on T2A2 cells
- Assay type: binding
- measurement-conditions: T2A2 cells pulsed with 50 μg/mL peptide and 3 μg/mL β2-M 18 h, BFA 1 h; MFI at 0, 2, 4, 6 h; time of half losing MFI of 0 h
reported-property: DC50 (dissociation complex 50)

>>> endpoint_result("QLQAQLQGV [KMT2D-R4198Q]")
"<2 h"
>>> endpoint_result("LLGPNSFEV [TP53-R267P]")
">6 h"
>>> endpoint_result("ALPQHLIRV [TP53-P190L]")
">4 h"
>>> endpoint_result("QVTDFLAPL [PCLO-E4090Q]")
">4 h"
>>> endpoint_result("TILEELNVV [SYNE1-N4342I]")
"<4 h"
>>> endpoint_result("ILIGETIKI [COX-2 321–329, reference compound]")
">6 h"

* * *

- target: peptide/HLA-A*0201 complex (Homo sapiens, UniProt P04439, D140Y/D185E/D98H/E176V/E277Q/G131W/G231S/I119V/I121R/I166T/I218V/L300P/L318F/N151K/N90K/P208A/P217A/Q86G/Q94H/R138H/R169H/T345S)
- Construct: T2A2 cells (TAP-deficient HLA-A2 molecules overexpressing, cultured in IMDM medium); β2-M from Merck; host or cells: T2A2 cells
- measurement-description: peptide/MHC complex stabilization assay on T2A2 cells
- Type: binding
- measurement-conditions: T2A2 cells pulsed with 50 μg/mL peptide and 3 μg/mL β2-M 18 h, BFA 1 h; MFI at 0, 2, 4, 6 h; time of half losing MFI of 0 h
reported-property: DC50 (dissociation complex 50)

>>> endpoint_result("ILQDGFLYV [ABCA13-E1359Q]")
">6 h"
>>> endpoint_result("YLPDHHEEL [SYNE1-S7628Y]")
"<2 h"
>>> endpoint_result("ILWRQDINL [NFE2L2-D13N]")
">6 h"
>>> endpoint_result("SIPSFPLPV [MUC16-S5361F]")
"<2 h"
>>> endpoint_result("SMGDALDSI [MUC16-A4579D]")
"<2 h"
>>> endpoint_result("FLIQTEQKL [SYNE1-V7402I]")
">6 h"
>>> endpoint_result("TMPVVSSEV [MUC17-A2414V]")
"<4 h"
>>> endpoint_result("VLDDSETTI [MUC16-A9832D]")
">6 h"
